assayDetails: qHTS assay to identify small molecule antagonists of the retinoid-related orphan receptor gamma (ROR-gamma) signaling pathway - cell viability counter screen (AID 1159520); further: nearly all actives have a fitted effect of over 50% in size; further: potency means the concentration at half of the fitted maximal effect
settings: Tet-on RORgamma CHO cells viability, ATP luminescence, 16 h; series mostly up to 92.4 µM
Inconclusive results are not listed. Active and inactive are the calls of the source. The call rests on the fitted dose curve; in most records, active means well fitted cell-killing curve with a large enough effect in the repeat runs; inconclusive means weak or mixed curves, or effect the other way; inactive means no such curve, though single readings can be large or run the other way.
measure: Potency

For orientation, consider the following solved cases.
# compound, result
measured = [
    ("CC(=O)[O-].CC(=O)[O-].CC(=O)[O-].[Cr+3]", "inactive"),
    ("O=S(=O)(NS(=O)(=O)C(F)(F)F)C(F)(F)F", "inactive"),
    ("COP(=S)(OC)Oc1nc(Cl)c(Cl)cc1Cl", "inactive"),
    ("CCC[CH2][Sn]([CH2]CCC)([CH2]CCC)[CH2]CCC", "10.9 µM (active)"),
    ("O=C1C[C@@H]2OCC=C3CN4CC[C@]56c7ccccc7N1[C@H]5[C@H]2[C@H]3C[C@H]46", "inactive"),
]

Hi team, please reply with Potency for each item in this list.
1. [Cl][Hg][c]1ccccc1
2. CCC(C)c1cccc(C(C)CC)c1O (configuration not stated)
3. CCCCCON=O
4. C=CCOC(=O)c1ccccc1N
5. CC[N+]1(CC)CCC(OC(=O)C(O)(c2ccccc2)c2ccccc2)C1 (configuration not stated)
6. CCOP(=O)(OCC)Oc1cc(C)nc(C(C)C)n1
7. O=c1c2ccccc2c(=O)c2c1cc(Cl)c1[nH]c3c([nH]c12)c(Cl)cc1c(=O)c2ccccc2c(=O)c13

## Output
1: 1.09 µM (active); 2: inactive; 3: inactive; 4: inactive; 5: inactive; 6: inactive; 7: inactive
